From: the Human Domainome abundance scans (Beltran et al. 2025)

B1: Dystrobrevin alpha, residues 235 to 294; numbered along this chain, Q9Y4J8 (parent)
chain: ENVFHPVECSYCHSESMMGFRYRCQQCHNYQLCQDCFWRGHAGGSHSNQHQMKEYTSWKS

# Variants of: B1
# Method: abundance fitness (aPCA) (normalised: wild type 0, dead -1); higher = more abundant; growth selection in yeast, the domain comes from the species named
# Reported conditions: Homo sapiens
Measurement name: abundance fitness
Give a plain numeric answer without units written out.

| Mutation label | Observed measurement |
| --- | --- |
| E8T | -0.234 |

// query Quick one: abundance fitness of H50E ?
// result -0.516
